kon overview
- TEST_TARGET: T1, mfNPR1-mFc:hBNP complex (monkey; human, UniProt P16860 103-134)
- T1 construct: also called monkey NPR1 complexed to BNP
- TEST: SPR, mAb captured, 25C
READOUT: kon (M⁻¹ s⁻¹)

BINDER	READOUT	NUMERIC_VALUE
mAb25479 (antibody, human IgG4, V domains shown) VH: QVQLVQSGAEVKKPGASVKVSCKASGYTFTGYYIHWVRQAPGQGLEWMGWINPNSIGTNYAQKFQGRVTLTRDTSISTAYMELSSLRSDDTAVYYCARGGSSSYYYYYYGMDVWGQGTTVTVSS VL: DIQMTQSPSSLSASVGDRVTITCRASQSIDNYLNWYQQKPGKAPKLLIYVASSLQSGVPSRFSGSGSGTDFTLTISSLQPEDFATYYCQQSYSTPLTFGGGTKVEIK	kon	38100
mAb25508 (antibody, human IgG4, V domains shown) VH: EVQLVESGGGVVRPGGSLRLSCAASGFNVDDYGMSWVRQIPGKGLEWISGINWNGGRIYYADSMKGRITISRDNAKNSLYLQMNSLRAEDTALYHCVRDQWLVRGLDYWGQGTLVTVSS VL: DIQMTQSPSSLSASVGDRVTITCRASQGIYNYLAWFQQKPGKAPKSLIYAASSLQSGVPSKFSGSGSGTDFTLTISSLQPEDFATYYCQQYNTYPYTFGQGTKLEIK	kon	308000
mAb22805 (antibody, human IgG4, V domains shown) VH: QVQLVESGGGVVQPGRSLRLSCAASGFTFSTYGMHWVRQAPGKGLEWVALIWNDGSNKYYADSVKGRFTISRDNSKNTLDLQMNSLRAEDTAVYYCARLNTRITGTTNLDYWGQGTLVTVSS VL: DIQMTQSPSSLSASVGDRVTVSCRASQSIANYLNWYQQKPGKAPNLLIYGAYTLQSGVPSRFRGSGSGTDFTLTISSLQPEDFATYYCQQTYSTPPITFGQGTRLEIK	kon	45300
mAb25502 (antibody, human IgG4, V domains shown) VH: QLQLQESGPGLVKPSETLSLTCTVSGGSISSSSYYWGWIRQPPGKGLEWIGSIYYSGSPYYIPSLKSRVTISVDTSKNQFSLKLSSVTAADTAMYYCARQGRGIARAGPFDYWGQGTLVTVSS VL: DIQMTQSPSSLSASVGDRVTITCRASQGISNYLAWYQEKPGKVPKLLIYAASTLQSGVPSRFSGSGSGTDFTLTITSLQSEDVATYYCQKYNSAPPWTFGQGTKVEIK	kon	69000
mAb22033 (antibody, human IgG4, V domains shown) VH: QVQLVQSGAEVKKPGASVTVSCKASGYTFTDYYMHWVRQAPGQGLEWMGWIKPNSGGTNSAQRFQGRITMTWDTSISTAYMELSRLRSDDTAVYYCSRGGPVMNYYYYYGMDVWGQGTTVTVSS VL: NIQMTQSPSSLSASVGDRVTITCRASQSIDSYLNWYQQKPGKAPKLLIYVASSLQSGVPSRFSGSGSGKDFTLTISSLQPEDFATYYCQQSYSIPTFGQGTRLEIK	kon	65900
